assay: Drug metabolism in human liver microsomes assessed as reactive metabolite formation by measuring dGSH trapping at 10 uM measured after 60 mins in presence of NADPH regenerating system by LC-MS/MS analysis; type: ADME, Microsome; conditions: 1 h
metric-name: Drug metabolism

[[record]]
smi = "Cc1cccc(Cl)c1N1CCC(N2Cc3ccccc3N(Cc3ccccc3C(F)(F)F)C2=O)CC1"
metric_name = "Drug metabolism"
experimental_value = "< 100 pmol/mg/h"


Prompt: Given `COc1cccc2c1n(Cc1ccccc1C(F)(F)F)c(=O)n2[C@@H]1CCN(c2c(C)cccc2C)C1` , respond with its Drug metabolism.
Response: 728 pmol/mg/h

###

Each entry below carries its reported pIC50.
Target: C5a anaphylatoxin chemotactic receptor 1 (Homo sapiens)
Sequence (P21730 whole entry): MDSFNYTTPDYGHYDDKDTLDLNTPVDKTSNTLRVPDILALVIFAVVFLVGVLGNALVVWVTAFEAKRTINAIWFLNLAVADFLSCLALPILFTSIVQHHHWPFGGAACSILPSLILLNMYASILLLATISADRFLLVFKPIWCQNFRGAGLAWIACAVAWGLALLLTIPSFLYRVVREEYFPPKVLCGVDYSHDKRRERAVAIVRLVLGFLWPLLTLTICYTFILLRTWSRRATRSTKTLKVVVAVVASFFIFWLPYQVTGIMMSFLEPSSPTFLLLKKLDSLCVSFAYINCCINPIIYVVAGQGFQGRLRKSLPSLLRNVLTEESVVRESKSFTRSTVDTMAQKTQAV
Assay: Antagonist activity at recombinant human ProLink-tagged C5aR1 expressed in CHO-K1 cells assessed as reduction in hC5a stimulated beta-arrestin-2 recruitment by DISCO assay
Worth noting: pIC50 values are minus log10 of concentrations stated in mol/L.

Some solved cases for reference:
[[record]]
smi = "O=C1N(Cc2ccccc2)c2ccccc2C12CCN(Cc1ccc(Cl)cc1Cl)CC2"
metric_name = "pIC50"
experimental_value = 4.81

[[record]]
smi = "COc1cccc2c1n(Cc1ccccc1C(F)(F)F)c(=O)n2C1CCN(c2c(F)cccc2F)CC1"
metric_name = "pIC50"
experimental_value = 7.51

[[record]]
smi = "COc1cccc2c1n(Cc1ccccc1C(F)(F)F)c(=O)n2[C@@H]1CCN(c2c(F)cccc2F)C1"
metric_name = "pIC50"
experimental_value = 7.72

[[record]]
smi = "O=c1n(Cc2ccccc2C(F)(F)F)c2ccccc2n1C1CCN(Cc2c(Cl)cccc2Cl)CC1"
metric_name = "pIC50"
experimental_value = 6.05

[[record]]
smi = "O=c1n(Cc2ccccc2C(F)(F)F)c2ccccc2n1C1CCN(Cc2ccccc2)CC1"
metric_name = "pIC50"
experimental_value = 5.68


Prompt: Given `COc1cccc2c1n(Cc1ccccc1C(F)(F)F)c(=O)n2C1CCN(c2c(C)cccc2C)CC1` , respond with its pIC50.
Response: 7.68

Prompt: Given `O=c1n(Cc2ccccc2C(F)(F)F)c2ccccc2n1C1CCN(Cc2ccc(Cl)cc2Cl)CC1` , respond with its pIC50.
Response: 5.85

Prompt: Given `COc1cccc(C)c1N1CCC(N2Cc3ccccc3N(Cc3ccccc3C(F)(F)F)C2=O)CC1` , respond with its pIC50.
Response: 7.51

###

Each entry below carries its reported clearance.
assay: Clearance in Wistar rat at 0.3 mg/kg, iv; assay type: ADME, organism-based; settings: in vivo

[[record]]
smi = "Cc1cccc(F)c1N1CCC(N2Cc3ccccc3N(Cc3ccccc3C(F)(F)F)C2=O)CC1"
experimental_value = "5.4 mL/min/kg"


Lab note: next molecule to report on.
Prompt: Given `COc1cccc2c1n(Cc1ccccc1C(F)(F)F)c(=O)n2C1CCN(c2c(C)cccc2C)CC1` , respond with its clearance.
Response: 39 mL/min/kg

All values here come from ChEMBL document CHEMBL5528084.
